Entry source: patent US20240415914A1

Assay: Stability of cannabinoid and Vitamin E components of Beverage 1 (AB White) stored at 8° C. and 21-25° C., LCMSMS over 570 days
Assay type: physicochemical
Conditions: beverage stored at 8° C., day 120
reported endpoint: Stability in AB White, 8° C. (content by LCMSMS) (µg/mL)

[[record]]
compound = "CCCc1cc(O)c2c(c1)OC(C)(C)[C@@H]1CCC(C)=C[C@@H]21 [THCV, delta-9-tetrahydrocannabivarin]"
endpoint_unit = "µg/mL"
observed = 3.56

[[record]]
compound = "CCCCCc1cc2c(c(O)c1C(=O)O)[C@@H]1C=C(C)CC[C@H]1C(C)(C)O2 [D9 THCA, delta-9-tetrahydrocannabinolic acid]"
endpoint_unit = "µg/mL"
observed = 0.932

[[record]]
compound = "CCCCCc1cc(O)c2c(c1)OC(C)(C)[C@@H]1CCC(C)=C[C@@H]21 [D9 THC, delta-9-tetrahydrocannabinol, reference compound]"
endpoint_unit = "µg/mL"
observed = 11.79

[[record]]
compound = "CCCCCc1cc(O)c2c(c1)OC1(C)CCC3C1C2C3(C)C (stereo not shown)"
endpoint_unit = "µg/mL"
observed = 0.534

[[record]]
compound = "CCCCCc1cc(O)c(C/C=C(\\C)CCC=C(C)C)c(O)c1"
endpoint_unit = "µg/mL"
observed = 4.89

[[record]]
compound = "C=C(C)[C@@H]1CCC(C)=C[C@H]1c1c(O)cc(CCC)cc1O"
endpoint_unit = "µg/mL"
observed = 0.144

[[record]]
compound = "C=C(C)[C@@H]1CCC(C)=C[C@H]1c1c(O)cc(CCCCC)c(C(=O)O)c1O"
endpoint_unit = "µg/mL"
observed = 1.67

[[record]]
compound = "CCCCCc1cc(O)c2c(c1)OC(C)(C)c1ccc(C)cc1-2"
endpoint_unit = "µg/mL"
observed = 2.72

[[record]]
compound = "C=C(C)[C@@H]1CCC(C)=C[C@H]1c1c(O)cc(CCCCC)cc1O [CBD, cannabidiol, reference compound]"
endpoint_unit = "µg/mL"
observed = 27.39

[[record]]
compound = "CCCCCc1cc(O)c2c(c1)OC(C)(CCC=C(C)C)C=C2 (stereo not shown)"
endpoint_unit = "µg/mL"
observed = 0.311


* * *

Assay type: physicochemical
Conditions: stored at room temperature (21-25° C.), day 3
Note to self: use Met only for Stability in Powder Concentrate (content by LCMSMS) readings below 0.4 mg/g powder; a reading exactly at 0.4 mg/g powder still gets Not met.

[[record]]
compound = "CCCCCc1cc(O)c2c(c1)OC(C)(C)[C@@H]1CCC(C)=C[C@@H]21 [D9 THC, delta-9-tetrahydrocannabinol, reference compound]"
group_label = "Not met"

[[record]]
compound = "CCCCCc1cc2c(c(O)c1C(=O)O)[C@@H]1C=C(C)CC[C@H]1C(C)(C)O2 [D9 THCA, delta-9-tetrahydrocannabinolic acid]"
group_label = "Met"

[[record]]
compound = "CCCCCc1cc(O)c2c(c1)OC1(C)CCC3C1C2C3(C)C (centres unmarked)"
group_label = "Met"

[[record]]
compound = "CCCCCc1cc(O)c2c(c1)OC(C)(C)c1ccc(C)cc1-2"
group_label = "Not met"


* * *

Type: physicochemical
Details: stored at room temperature (21-25° C.), day 270
Give Condition met when the value for Stability in Powder Concentrate (content by LCMSMS) is at least 0.4 mg/g powder. Give Condition not met when it is less.

[[record]]
molecule = "C=C(C)[C@@H]1CCC(C)=C[C@H]1c1c(O)cc(CCCCC)c(C(=O)O)c1O"
group_label = "Condition met"

[[record]]
molecule = "C=C(C)[C@@H]1CCC(C)=C[C@H]1c1c(O)cc(CCCCC)cc1O [CBD, cannabidiol, reference compound]"
group_label = "Condition met"

[[record]]
molecule = "CCCCCc1cc(O)c2c(c1)OC(C)(C)[C@@H]1CCC(C)=C[C@@H]21 [D9 THC, delta-9-tetrahydrocannabinol, reference compound]"
group_label = "Condition met"

[[record]]
molecule = "CCCCCc1cc2c(c(O)c1C(=O)O)[C@@H]1C=C(C)CC[C@H]1C(C)(C)O2 [D9 THCA, delta-9-tetrahydrocannabinolic acid]"
group_label = "Condition not met"

[[record]]
molecule = "CCCCCc1cc(O)c2c(c1)OC(C)(C)c1ccc(C)cc1-2"
group_label = "Condition met"

[[record]]
molecule = "CCCCCc1cc(O)c2c(c1)OC(C)(CCC=C(C)C)C=C2 (stereo not drawn)"
group_label = "Condition not met"

